Values from ChEMBL document CHEMBL3227917

Assay: Antitumor activity against mouse Ridgway osteogenic sarcoma allografted in AKR mouse assessed as tumor growth inhibition at 0.10 mg/kg, ip administered daily for 8 to 10 days compound treatment commenced 8 days after tumor implantation
Type: functional
Conditions: route intraperitoneal, read-out: TGI
Attribute Measured: inhibition in vivo at 0.1 mg/kg (%)
Write it as a number; the unit % goes unstated.

These solved cases illustrate the format of a correct answer.
Asked: I would be grateful if you could share the reported inhibition in vivo at 0.1 mg/kg for CC[C@]1(O)C[C@H]2CN(CCc3c([nH]c4ccccc34)[C@@](C(=O)OC)(c3cc4c(cc3OC)N(C)[C@H]3[C@@](O)(C(=O)N(C)C)[C@H](O)[C@]5(CC)C=CCN6CC[C@]43[C@@H]65)C2)C1.O=S(=O)(O)O .
Given back: 0

Asked: What would you report for CC[C@]1(O)C[C@@H]2CN(CCc3c([nH]c4ccccc34)[C@@](C(=O)OC)(c3cc4c(cc3OC)N(C)[C@H]3[C@@](O)(C(N)=O)[C@H](O)[C@]5(CC)C=CCN6CC[C@]43[C@@H]65)C2)C1.O=S(=O)(O)O [VINDESINE SULFATE] ?
Given back: 0

Asked: What would you report for CC[C@]1(O)C[C@H]2CN(CCc3c([nH]c4ccccc34)[C@@](C(=O)OC)(c3cc4c(cc3OC)N(C)[C@H]3[C@@](O)(C(=O)NCCO)[C@H](O)[C@]5(CC)C=CCN6CC[C@]43[C@@H]65)C2)C1.O=S(=O)(O)O ?
Given back: 76

Continuing:
Asked: I would be grateful if you could share the reported inhibition in vivo at 0.1 mg/kg for CC[C@]1(O)C[C@H]2CN(CCc3c([nH]c4ccccc34)[C@@](C(=O)OC)(c3cc4c(cc3OC)N(C)[C@H]3[C@@](O)(C(=O)NCCN)[C@H](O)[C@]5(CC)C=CCN6CC[C@]43[C@@H]65)C2)C1 .
Given back: 0

Asked: What would you report for CC[C@]1(O)C[C@H]2CN(CCc3c([nH]c4ccccc34)[C@@](C(=O)OC)(c3cc4c(cc3OC)N(C)[C@H]3[C@@](O)(C(=O)NC(C)C)[C@H](O)[C@]5(CC)C=CCN6CC[C@]43[C@@H]65)C2)C1.O=S(=O)(O)O ?
Given back: 76

Asked: What would you report for CC[C@]1(O)C[C@H]2CN(CCc3c([nH]c4ccccc34)[C@@](C(=O)OC)(c3cc4c(cc3OC)N(C)[C@H]3[C@@](O)(C(=O)NC)[C@H](O)[C@]5(CC)C=CCN6CC[C@]43[C@@H]65)C2)C1.O=S(=O)(O)O ?
Given back: 0
